assay: Octanol-phosphate partition coefficient
Format: physicochemical
conditions: octanol/0.2 m phosphate buffer, pH 7.4, average of 1.4 times and 0.7 times; pH 7.4, 20° C.; read-out: partition coefficient (converted)
readout label: logD at 24 h
In your answer, state the number alone without any accompanying words.

Q: Fill blank: measured logD at 24 h of the compound O=[N+]([O-])c1nccn1CO[C@@H](CO)[C@@H](O)CO [SS isomer] is ____.
Ans: -1.55

Q: Fill blank: measured logD at 24 h of the compound O=[N+]([O-])c1nccn1CO[C@H](CO)[C@@H](O)CO (relative stereo) [SR-RS racemate] is ____.
Ans: -1.33

Q: Fill blank: measured logD at 24 h of the compound COCC(O)Cn1ccnc1[N+](=O)[O-] (stereo not shown) [Misonidazole, reference compound] is ____.
Ans: -0.409

Q: Fill blank: measured logD at 24 h of the compound O=[N+]([O-])c1nccn1CO[C@H](CO)[C@H](O)CO [RR isomer] is ____.
Ans: -1.6

---

System: breast carcinoma cell EMT6/KU
assay: In vitro hypoxic cell sensitization effect (colony formation, gamma-ray)
Format: cell-based, Balb/c mouse
conditions: 1 mM test compound, EMT6/KU hypoxic cells, ratio of radiation amounts without/with compound
Kindly supply the reported Hypoxic cell sensitization rate values for the records listed here.
In your answer, state the number alone without any accompanying words.

Q: Fill blank: measured Hypoxic cell sensitization rate of the compound O=[N+]([O-])c1nccn1COC(CO)C(O)CO (single isomer, unassigned) [RS or SR isomer (rotation(+))] is ____.
Ans: 1.7

Q: Fill blank: measured Hypoxic cell sensitization rate of the compound O=[N+]([O-])c1nccn1CO[C@H](CO)[C@@H](O)CO (relative stereo) [SR-RS racemate] is ____.
Ans: 1.7

Q: Fill blank: measured Hypoxic cell sensitization rate of the compound O=[N+]([O-])c1nccn1CO[C@@H](CO)[C@@H](O)CO [SS isomer] is ____.
Ans: 1.8

Q: Fill blank: measured Hypoxic cell sensitization rate of the compound O=[N+]([O-])c1nccn1COC(CO)C(O)CO (single isomer, unassigned) [RS or SR isomer (rotation(-))] is ____.
Ans: 1.7

Q: Fill blank: measured Hypoxic cell sensitization rate of the compound O=[N+]([O-])c1nccn1CO[C@H](CO)[C@H](O)CO [RR isomer] is ____.
Ans: 1.8

---

Kindly supply the reported logD at 24 h values for the records listed here.
assay: Octanol-phosphate partition coefficient
Assay type: physicochemical
conditions: octanol/0.2 m phosphate buffer, pH 7.4, octanol/0.2 mol phosphate buffer pH 7.4, 20° C., 24 hours; 1.4 times; read-out: partition coefficient at 1.4 times the solubility in octanol (converted)
In your answer, state the number alone without any accompanying words.

Q: Fill blank: measured logD at 24 h of the compound COCC(O)Cn1ccnc1[N+](=O)[O-] (stereo not shown) [Misonidazole, reference compound] is ____.
Ans: -0.423

Q: Fill blank: measured logD at 24 h of the compound O=[N+]([O-])c1nccn1CO[C@H](CO)[C@H](O)CO [RR isomer] is ____.
Ans: -1.62

Q: Fill blank: measured logD at 24 h of the compound O=[N+]([O-])c1nccn1CO[C@H](CO)[C@@H](O)CO (relative stereo) [SR-RS racemate] is ____.
Ans: -1.43

Q: Fill blank: measured logD at 24 h of the compound O=[N+]([O-])c1nccn1CO[C@@H](CO)[C@@H](O)CO [SS isomer] is ____.
Ans: -1.59

---

Kindly supply the reported solubility values for the records listed here.
assay: Dissolution test (solubility)
Format: physicochemical
conditions: physiological saline; read-out: Solubility in physiological saline
Could you give me the number in mg/mL? Just the number is fine.

Q: Fill blank: measured solubility of the compound O=[N+]([O-])c1nccn1CO[C@H](CO)[C@H](O)CO [RR isomer] is ____.
Ans: 870

Q: Fill blank: measured solubility of the compound O=[N+]([O-])c1nccn1CO[C@@H](CO)[C@@H](O)CO [SS isomer] is ____.
Ans: 820

Q: Fill blank: measured solubility of the compound O=[N+]([O-])c1nccn1COC(CO)C(O)CO (single isomer, unassigned) [RS or SR isomer (rotation(+))] is ____.
Ans: 70

Q: Fill blank: measured solubility of the compound O=[N+]([O-])c1nccn1CO[C@H](CO)[C@@H](O)CO (relative stereo) [SR-RS racemate] is ____.
Ans: 40

---

assay: Octanol-phosphate partition coefficient
Format: physicochemical
conditions: octanol/0.2 m phosphate buffer, pH 7.4, octanol/0.2 mol phosphate buffer pH 7.4, 20° C., 24 hours; 0.7 times; read-out: partition coefficient at 0.7 times the solubility in octanol (converted)
Kindly supply the reported logD at 24 h values for the records listed here.
In your answer, state the number alone without any accompanying words.

Q: Fill blank: measured logD at 24 h of the compound O=[N+]([O-])c1nccn1CO[C@H](CO)[C@H](O)CO [RR isomer] is ____.
Ans: -1.59

Q: Fill blank: measured logD at 24 h of the compound COCC(O)Cn1ccnc1[N+](=O)[O-] (stereo not shown) [Misonidazole, reference compound] is ____.
Ans: -0.397

Q: Fill blank: measured logD at 24 h of the compound O=[N+]([O-])c1nccn1CO[C@@H](CO)[C@@H](O)CO [SS isomer] is ____.
Ans: -1.51

Q: Fill blank: measured logD at 24 h of the compound O=[N+]([O-])c1nccn1CO[C@H](CO)[C@@H](O)CO (relative stereo) [SR-RS racemate] is ____.
Ans: -1.24

---

assay: Acute toxicity test (LD50/14), i.v. or i.p.
conditions: mouse, in vivo; intravenously or intraperitoneally, ICR male mice, 14 days
readout label: LD50 at 336 h (mg/kg)
Could you give me the number in mg/kg? Just the number is fine.

Q: Fill blank: measured LD50 at 336 h of the compound O=[N+]([O-])c1nccn1CO[C@H](CO)[C@@H](O)CO [Compound (3)] is ____.
Ans: 5900

Q: Fill blank: measured LD50 at 336 h of the compound O=[N+]([O-])c1nccn1CO[C@@H](CO)[C@H](O)CO [Compound (4)] is ____.
Ans: 5900

---

Kindly supply the reported Hypoxic cell survival rate values for the records listed here.
Tested on: EMT6/KU-cancerated Balb/c mouse
assay: In vivo-in vitro hypoxic cell sensitization effect (EMT6/KU tumour-bearing mouse, gamma-ray, colony forming method)
conditions: 200 mg/kg; 20 Gy gamma-ray 30 minutes thereafter
Could you give me the number in %? Just the number is fine.

Q: Fill in the recorded Hypoxic cell survival rate for this compound, with EMT6/KU-cancerated Balb/c mouse as test system: O=[N+]([O-])c1nccn1CO[C@H](CO)[C@H](O)CO [RR isomer]
Ans: 0.07

Q: Fill in the recorded Hypoxic cell survival rate for this compound, with EMT6/KU-cancerated Balb/c mouse as test system: O=[N+]([O-])c1nccn1COC(CO)C(O)CO (single isomer, unassigned) [RS or SR isomer (rotation(+))]
Ans: 0.08

Q: Fill in the recorded Hypoxic cell survival rate for this compound, with EMT6/KU-cancerated Balb/c mouse as test system: O=[N+]([O-])c1nccn1CO[C@@H](CO)[C@@H](O)CO [SS isomer]
Ans: 0.07

Q: Fill in the recorded Hypoxic cell survival rate for this compound, with EMT6/KU-cancerated Balb/c mouse as test system: O=[N+]([O-])c1nccn1CO[C@H](CO)[C@@H](O)CO (relative stereo) [SR-RS racemate]
Ans: 0.08

Q: Fill in the recorded Hypoxic cell survival rate for this compound, with EMT6/KU-cancerated Balb/c mouse as test system: O=[N+]([O-])c1nccn1COC(CO)C(O)CO (single isomer, unassigned) [RS or SR isomer (rotation(-))]
Ans: 0.08

Cited source: patent US5532380A
